# reported IC50; entries follow
target.of.assay: human plasma type α1,3FucT (Homo sapiens, UniProt Q11128)
Sequence (Q11128 whole entry): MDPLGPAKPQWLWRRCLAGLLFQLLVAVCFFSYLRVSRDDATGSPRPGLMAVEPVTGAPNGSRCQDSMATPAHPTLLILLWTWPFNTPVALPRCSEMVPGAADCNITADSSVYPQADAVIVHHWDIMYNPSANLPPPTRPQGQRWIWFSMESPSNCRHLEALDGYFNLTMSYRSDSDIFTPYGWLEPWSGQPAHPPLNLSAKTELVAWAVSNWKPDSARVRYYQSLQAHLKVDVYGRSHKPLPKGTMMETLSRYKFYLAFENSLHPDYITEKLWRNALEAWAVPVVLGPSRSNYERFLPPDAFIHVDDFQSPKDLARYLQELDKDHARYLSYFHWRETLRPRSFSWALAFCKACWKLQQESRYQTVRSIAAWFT
experiment.description: Substrate specificity and inhibition study of α1,3FucT (GDP-14C-Fuc transfer assay)
recorded.conditions: 0.1 mM GDP-Fuc, 10 mM Mn2+ and 10 mM LacNAc at pH 6.2 and 37° C.

- molecule: "OC[C@H]1NC[C@H](O)[C@@H](O)[C@@H]1O[C@@H]1O[C@H](CO)[C@H](O)[C@H](O)[C@H]1O [Galβ1,4deoxynojirimycin]"
  u: "mM"
  inequality.operator: "="
  IC50: 8
- molecule: "Nc1nc2c(ncn2C2OC(COP(=O)(O)OP(=O)(O)OC3OC(CO)C(O)C(O)C3O)C(O)C2O)c(=O)[nH]1 (stereo not drawn) [GDP-Man, guanosine 5′-diphospho-mannose]"
  u: "mM"
  inequality.operator: "="
  IC50: 2
- molecule: "OC[C@H]1O[C@@H](O[C@H]2[C@H](O)C=CO[C@@H]2CO)[C@H](O)[C@@H](O)[C@H]1O [Galβ1,4Glucal]"
  u: "mM"
  inequality.operator: ">"
  IC50: 50

###

target.of.assay: human plasma type α1,3FucT (Homo sapiens)
experiment.description: Substrate specificity and inhibition study of α1,3FucT (GDP-14C-Fuc transfer assay)
Type: biochemical
recorded.conditions: 0.1 mM GDP-Fuc, 10 mM Mn2+ and 10 mM LacNAc at pH 6.2 and 37° C.
pIC50: −log10 of the molar value.

- molecule: "CC(=O)N[C@H]1C(O)O[C@H](CO)[C@@H](O)[C@@H]1O[C@@H]1O[C@H](CO)[C@H](O)[C@H](O)[C@H]1O (stereo partly shown)"
  inequality.operator: "<"
  pIC50: 1.30
- molecule: "OCC1N[C@@H](CO)C(O)[C@@H]1O (stereo partly shown)"
  inequality.operator: "="
  pIC50: 1.28
- molecule: "CC(=O)N[C@H]1C(O)O[C@H](CO)[C@H](O)[C@@H]1O[C@@H]1O[C@H](CO)[C@H](O)[C@H](O)[C@H]1O (stereo partly shown)"
  inequality.operator: "<"
  pIC50: 1.00
- molecule: "CC1N[C@@H](CO)C(O)[C@@H]1O (stereo partly shown)"
  inequality.operator: "="
  pIC50: 1.47
- molecule: "Nc1nc2c(ncn2[C@@H]2O[C@H](COP(=O)(O)OP(=O)(O)O)[C@@H](O)[C@H]2O)c(=O)[nH]1 [GDP, guanosine 5′-diphosphate]"
  inequality.operator: "="
  pIC50: 4.30
- molecule: "CC(=O)N[C@H]1[C@H](O[C@H]2[C@H](O)[C@@H](NC(C)=O)C(O)O[C@@H]2CO)O[C@H](CO)[C@@H](O)[C@@H]1O (stereo partly shown)"
  inequality.operator: "<"
  pIC50: 1.30
- molecule: "CC1NC(CO)C(O)C1O (stereo not shown)"
  inequality.operator: "="
  pIC50: 1.10

###

target.of.assay: human plasma type α1,3FucT (Homo sapiens, UniProt Q11128)
experiment.description: Substrate specificity and inhibition study of α1,3FucT (GDP-14C-Fuc transfer assay)
Assay type: biochemical
recorded.conditions: 0.1 mM GDP-Fuc, 10 mM MnCl2 and 10 mM Galβ1,4GlcNAc; Galβ1,4GlcNAc = 100
metric: Vrel (relative maximal velocities)

- molecule: "C=CCO[C@@H]1O[C@H](CO)[C@@H](O[C@@H]2O[C@H](CO)[C@H](O)[C@H](O)[C@H]2O)[C@H](O)[C@H]1NC(C)=O"
  value.reported: 64
- molecule: "OC[C@H]1O[C@@H](O[C@H]2[C@H](O)C=CO[C@@H]2CO)[C@H](O)[C@@H](O)[C@H]1O"
  value.reported: 10
- molecule: "OC[C@H]1O[C@@H](O[C@H]2[C@H](O)[C@@H](O)C(O)S[C@@H]2CO)[C@H](O)[C@@H](O)[C@H]1O (some centres unmarked)"
  value.reported: 51
- molecule: "CC(=O)N[C@H]1C([C@H](O)[C@H](O)CO)O[C@@](OC2[C@H](O)C(O[C@H]3C(O)C=COC3CO)OC(CO)[C@@H]2O)(C(=O)O)C[C@H]1O (some centres unmarked)"
  value.reported: 330
- molecule: "CC(=O)NC1C(O)OC(CO)C(OC2OC(CO)C(O)C(OC3(C(=O)O)CC(O)C(NC(C)=O)C(C(O)C(O)CO)O3)C2O)C1O (centres unmarked)"
  value.reported: 620
- molecule: "CC(=O)N[C@H]1C(O)O[C@H](CO)[C@@H](O)[C@@H]1O[C@@H]1O[C@H](CO)[C@H](O)[C@H](O)[C@H]1O (some centres unmarked)"
  value.reported: 130
- molecule: "CC(=O)N[C@@H]1[C@@H](O)[C@H](O[C@@H]2O[C@H](CO[C@]3(C(=O)O)C[C@H](O)[C@@H](NC(C)=O)[C@H]([C@H](O)[C@H](O)CO)O3)[C@H](O)[C@H](O)[C@H]2O)[C@@H](CO)O[C@H]1O"
  value.reported: 13
- molecule: "OC[C@H]1O[C@@H](O[C@H]2[C@H](O)[C@@H](O)C(O)O[C@@H]2CO)[C@H](O)[C@@H](O)[C@H]1O (some centres unmarked)"
  value.reported: 150

The values you see were collected from patent US7335500B2.
